- Test system: MCF-7 (human breast cancer cells)
- experimental-parameters: read-out: IC50 in DMEM, MCF7; nutrient-rich DMEM, 24 h, WST-8, absorbance 450 nm, mean of three wells
Where a SMILES comes first, the peptide text is derived from it. Bridges are numbered along the chain shown (N, C = ends). [ ]: non-standard residue; d: D form. The star is where a group is joined. dNMeaIle = CC[C@H](C)[C@@H](NC)C(=O)O; d(aIle) = CC[C@H](C)[C@@H](N)C(=O)O; dNMeL = CN[C@H](CC(C)C)C(=O)O; NMeV = CN[C@H](C(=O)O)C(C)C; Methoxyacetyl = COCC(=O)*; βAla = NCCC(=O)O
readout-kind: IC50

• CC[C@H](C)[C@H]1NC(=O)CCNC(=O)[C@@H](C(C)C)NC(=O)[C@@H](CC(C)C)NC(=O)CCNC(=O)[C@@H](NC(=O)[C@@H](CC(C)C)N(C)C(=O)[C@@H](NC(=O)COC)C(C)C)[C@@H](C)OC(=O)[C@@H]([C@@H](C)CC)N(C)C(=O)[C@@H](CC(C)C)NC(=O)CCNC(=O)[C@H](C)NC(=O)[C@H](C(C)C)N(C)C1=O [Compound 2, theonellapeptolide IIa] (Methoxyacetyl-V[dNMeL]T[βAla][dL][dV][βAla][d(aIle)][NMeV]A[βAla][dL][dNMeaIle]; ester 3-C) = > 100 µM
